Property: recombinant UMI read abundance (log10); scope: individual sequences
# Protocol Details: recombinant UMI read abundance after kanamycin selection (control-corrected) (log10(CPM+1)); higher = more efficient recombination; extreme values may be limits of the assay; sequences stand for … in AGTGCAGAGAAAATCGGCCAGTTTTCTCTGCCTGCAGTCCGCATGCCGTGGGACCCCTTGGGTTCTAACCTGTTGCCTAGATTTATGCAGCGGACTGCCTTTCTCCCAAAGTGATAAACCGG…AGGTTGGTTTCACT; site = the 11-nt donor;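 also: IS621 bridge recombinase in Escherichia coli cells against a fixed T5 target plasmid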
Measurement Name: recombinant UMI read abundance (log10)

| Sequence String | Measurement Name | Quantitative Readout |
| --- | --- | --- |
| CGTTTGGCATGGACCGGTTTTCCCGGTAATCCGTATTTGCG (site CGTTTGGCTTG) | recombinant UMI read abundance (log10) | 0 |
| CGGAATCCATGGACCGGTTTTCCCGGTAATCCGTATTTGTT (site CGAAATCCTTA) | recombinant UMI read abundance (log10) | 0.014 |
| AGGAAGACATGGACCGGTTTTCCCGGTAATCCGTATTTGCT (site AGGAAGACTGG) | recombinant UMI read abundance (log10) | 0 |
| GTATATCCATGGACCGGTTTTCCCGGTAATCCGTATTTGGT (site GTATATCCTAC) | recombinant UMI read abundance (log10) | 1.08 |
| AACCTTCCATGGACCGGTTTTCCCGGTAATCCGTATTTGCC (site AACCTTCCTGG) | recombinant UMI read abundance (log10) | 0 |
| ACGAGTGCATGGACCGGTTTTCCCGGTAATCCGTATTTGGT (site ACCAGTGCTAC) | recombinant UMI read abundance (log10) | 0.837 |
| CTATTCCCATGGACCGGTTTTCCCGGTAATCCGTATTTGCT (site CGATTCCCTAG) | recombinant UMI read abundance (log10) | 0.475 |
| GAATGGGCATGGACCGGTTTTCCCGGTAATCCGTATTTGCA (site GAATGGACTTG) | recombinant UMI read abundance (log10) | 1.98 |
| ACACTATCATGGACCGGTTTTCCCGGTAATCCGTATTTGCA (site ACACTATCTTG) | recombinant UMI read abundance (log10) | 2.85 |
| CGTAATCCATGGACCGGTTTTCCCGGTAATCCGTATTTGTT (site CGTAATCCTAA) | recombinant UMI read abundance (log10) | 0 |
| AGACAGGCATGGACCGGTTTTCCCGGTAATCCGTATTTGCT (site AGAAAGGCTAG) | recombinant UMI read abundance (log10) | 0 |
| CACGGCACATGGACCGGTTTTCCCGGTAATCCGTATTTGTT (site CACGGCCCTAA) | recombinant UMI read abundance (log10) | 0.00343 |
| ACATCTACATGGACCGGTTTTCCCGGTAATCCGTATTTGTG (site ACATCTACTCT) | recombinant UMI read abundance (log10) | 0.188 |
| ACCTAGACATGGACCGGTTTTCCCGGTAATCCGTATTTGCG (site ACCTAGACTCA) | recombinant UMI read abundance (log10) | 0.0199 |
| GCTTGCACATGGACCGGTTTTCCCGGTAATCCGTATTTGAT (site GCTTGCCCTAT) | recombinant UMI read abundance (log10) | 0.00585 |
| CGCAACCCATGGACCGGTTTTCCCGGTAATCCGTATTTGTT (site CGGAATCCTAA) | recombinant UMI read abundance (log10) | 0 |
| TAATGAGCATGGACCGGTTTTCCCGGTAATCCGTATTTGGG (site TAATGAGCTCC) | recombinant UMI read abundance (log10) | 0.304 |
| CTATCAACATGGACCGGTTTTCCCGGTAATCCGTATTTGCT (site CGATCATCTAG) | recombinant UMI read abundance (log10) | 0.00622 |
| CGATCATCATGGACCGGTTTTCCCGGTAATCCGTATTTGTT (site CGATCATCTAA) | recombinant UMI read abundance (log10) | 1.4 |
| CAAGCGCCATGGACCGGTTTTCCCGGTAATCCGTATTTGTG (site CAAACGCCTCA) | recombinant UMI read abundance (log10) | 0.0285 |
| GGATAGACATGGACCGGTTTTCCCGGTAATCCGTATTTGCA (site GGATAGACTCG) | recombinant UMI read abundance (log10) | 0.831 |
| AGAAAGGCATGGACCGGTTTTCCCGGTAATCCGTATTTGCA (site AGAAAGGCTCG) | recombinant UMI read abundance (log10) | 0.889 |
| TAAATTCCATGGACCGGTTTTCCCGGTAATCCGTATTTGTA (site TAAACTCCTTA) | recombinant UMI read abundance (log10) | 0.00609 |
| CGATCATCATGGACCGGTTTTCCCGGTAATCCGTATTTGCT (site AGATTATCTAG) | recombinant UMI read abundance (log10) | 0.017 |
| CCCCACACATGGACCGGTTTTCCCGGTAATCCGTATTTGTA (site GCCCACACTTA) | recombinant UMI read abundance (log10) | 0.00479 |
| AAGTCGACATGGACCGGTTTTCCCGGTAATCCGTATTTGGG (site CAGTCGACTCC) | recombinant UMI read abundance (log10) | 0.0471 |
| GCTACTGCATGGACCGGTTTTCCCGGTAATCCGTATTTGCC (site GCTACTGCTGT) | recombinant UMI read abundance (log10) | 0 |
| ACGTCTACATGGACCGGTTTTCCCGGTAATCCGTATTTGTG (site ACATCTACTCA) | recombinant UMI read abundance (log10) | 0.796 |
| GGCCATCCATGGACCGGTTTTCCCGGTAATCCGTATTTGAA (site GGCTATCCTTT) | recombinant UMI read abundance (log10) | 0.0589 |
| GTTATTCCATGGACCGGTTTTCCCGGTAATCCGTATTTGGT (site GTTTTTCCTAC) | recombinant UMI read abundance (log10) | 0 |
| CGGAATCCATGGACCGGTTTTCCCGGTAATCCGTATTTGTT (site CGGTATCCTAT) | recombinant UMI read abundance (log10) | 0 |
| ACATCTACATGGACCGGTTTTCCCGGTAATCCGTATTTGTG (site ACAACTACTCA) | recombinant UMI read abundance (log10) | 0.00896 |
| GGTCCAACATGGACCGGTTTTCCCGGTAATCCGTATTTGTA (site GCTCCAACTTA) | recombinant UMI read abundance (log10) | 0.00409 |
| CAATCGACATGGACCGGTTTTCCCGGTAATCCGTATTTGTT (site CAATCGACTAA) | recombinant UMI read abundance (log10) | 0.347 |
| TAAACTCCATGGACCGGTTTTCCCGGTAATCCGTATTTGTA (site TAAATTCCTTA) | recombinant UMI read abundance (log10) | 0 |
| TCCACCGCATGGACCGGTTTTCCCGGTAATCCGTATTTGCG (site TCCACCGCTCT) | recombinant UMI read abundance (log10) | 0.0151 |
